Test: yeast display, Sf9 membrane polyspecificity reagent, FACS + sequencing; frameworks hold sequencing errors
measured.endpoint: polyreactivity (PSR sort gate)

Example sequences with recorded polyreactivity (PSR sort gate):
sequence_text=QVQLVESGGGLVQAGGSLRLSCAASGSTFVFYAMGWYRQAPGKERELVAINSGGSTYYADSVKGRFTISRDNAKKTVYLQMNSLKPVDTAVYYCAKDRLRVWRFDYWGQGTQVTVSS measured_endpoint="polyreactivity (PSR sort gate)" readout_value="low polyreactivity"
sequence_text=QVQLVESGGGLVQAGGSLRLSCAASGITFGRYAMGWYRQAPGKERELVAAISWSGGSTYYADSVKGRFTLSRDNAKNTVYLQMNSLKPEDTAVYYCAVEWYYTSYHIRFYRDNYWGQGTQVTVSS measured_endpoint="polyreactivity (PSR sort gate)" readout_value="high polyreactivity"
sequence_text=QVQLVESGGGLVQAGGSLRLSWAASGSIFGNAMGWYRQAPGKEREFVAAISSSGSSTYYADSVKGRFTISRDNAKNTVYLQMNSLKPEDTAVYYCAKRRRSAAPKYDYWGQGTHVTVSS measured_endpoint="polyreactivity (PSR sort gate)" readout_value="high polyreactivity"
sequence_text=QVQLVESAGGLVQAGGSLRLSCAASGSTFTYYAMGWSRQAPGKESELVAAISSGASTYYADSVKGRFTFSRDNAKNTVYLQMNSLKPEDTAVYYCNAKKSIRPYRTGMDYWGQGTQVTVSS measured_endpoint="polyreactivity (PSR sort gate)" readout_value="high polyreactivity"
sequence_text=QVQLVESGGGLVQAGGSLRLSCAASGSICRQYTMGWYRQAPGKERELVAGINQSGDSTSADSVKGRFTISRDNAKNTVYLQMNSLKPEDTAVYYCNADPRVWYRNIYPGRNYDYWGQGTQVTVSS measured_endpoint="polyreactivity (PSR sort gate)" readout_value="low polyreactivity"
sequence_text=QVQLVESGGGLVQAGGSLRLSCAASGSTFARYAMGWYRQAPGKERELVAGISRGGRTYYADSVMGRFTISRDYAKNTVYLQMNSLKPVDTAVYYCAKRYVTLYNSQYNYWGQGTQVTVSS measured_endpoint="polyreactivity (PSR sort gate)" readout_value="high polyreactivity"
sequence_text=QVQLVESGGGLVQAGGSLRLSCAASGIIFVYYTLGWYRQAPGKERELVAAITSGGSTYYADSVKGRFTISRDNAKNTVYLQMNSLKPEDTAVYYCAARTYRQPYYILDYYWGQGTQVTVSS measured_endpoint="polyreactivity (PSR sort gate)" readout_value="high polyreactivity"
sequence_text=QVQLVESGGGLVQAGGSLRLSCAASGSIFYWYAMGWYRQAPGKERELVAAISSGGSTNYADSVKGRFTISRDNAKNTVYLQMNSLKPEDTAVYYCNADIRSFYWEYYTGLDSWGQVTQVTVSS measured_endpoint="polyreactivity (PSR sort gate)" readout_value="low polyreactivity"

Problem: Find the recorded polyreactivity (PSR sort gate) belonging to `QVQLVESGGGLVQAGGSLRLTCAASGSIFDRNAMGWYRQAPGTERELVAAITYRSGGTYYADSVKGRFTISRDNAKNTVYLQMNSLKPEDTSVYYCNKGYRRYKGYDYWGQGTQVTVSS` and report it.
Result: high polyreactivity

Problem: Another sequence: `QVQLVESGGGLVQAGGSLRLSCAASGRTFRYAMGWYRQSPGKERELVAGITTRGTSTYYADSVKGRFTISRDNAKNTVYLQMNSLKPEDTAVYYCNARPARAVYIHTPTYRYDYWGQGTQVTVSS`
Result: high polyreactivity

Problem: Another sequence: `QVQLVESGGGLVQAGGSLRLSCAASGSIFADNTMGWSRQAPGKERELVAAITSSGRTYYADSVTGRFTISRDNAKNTVYLQMKSLKPEDTAVYYCAAVIYFHDYSPYYYWGQGTQVTVSS`
Result: high polyreactivity

---

Assay: yeast display, Sf9 membrane polyspecificity reagent, FACS + sequencing; frameworks hold sequencing errors
measured.endpoint: polyreactivity (PSR sort gate)

Example sequences with recorded polyreactivity (PSR sort gate):
sequence_text=QVQLVESGGGLVQAGGSLRLSCAASGRTFGLNVMGWYRQAPGKERELVATISGVGSTNYADSVKGRFTISRDNAKNTVYLQMNSLKPEDTAVYYCDKDPHVGRWWDLYSPYYSWGQGTQVTVSS readout_value="low polyreactivity"
sequence_text=QVQLVESGGGLVQAGGSLRLSCAASGFTFDYYNMGWYRQAPGKERELVAAITSGASTNYADSVKGRFTISRDNAKNTVYLQMNSLKPEDTAVYYCAAVLAGGVYWVVHYDYWGQGTQVTVSS readout_value="low polyreactivity"
sequence_text=QVQLVESGGGLVQAGGSLRLSCAASGRIGKYAMGWYRQAPGKERELVATISSTGTTNYADSVKGRFTISRDNAKNTVYLKMNSLKPEDTAVYYCAARWEYVGYRRRYYRFDYWGQGTQVTVSS readout_value="high polyreactivity"
sequence_text=QVQLVESGGGLVQAGGSLRLSCAASGSIFSQNAMGWYRQAPGKERELVAAITSSGGNTYADSVKGRFTISRDNAKNTVYLQMNRLKPEDTAVYYCAAGHLVILNRSEYYYWGQGTQVTVSS readout_value="low polyreactivity"
sequence_text=QVQLVESGGGLVQAGGSLRLSCAASGRTIRWNAMGWYRQAPGKERELVAAIDSVDNTYYADSVNGRFTISRDNAKNTVYFQMNSLKPEDTAVYYCARDTYWQVQMDYWGQGTQVTVSS readout_value="low polyreactivity"

Problem: Find the recorded polyreactivity (PSR sort gate) belonging to `QVQLVESGGGLDQAGGSLRLSCAASGSIFSGYAMGWYRQAPGKERELVAGISSRGGRTYYADSVKGRFTISRDNAKNTVYLQMNSLKPEDTAVYYCAARWSRSRTSDRYNYWGQGTQVTVSS` and report it.
Result: high polyreactivity

---

Assay: yeast display, Sf9 membrane polyspecificity reagent, FACS + sequencing; frameworks hold sequencing errors
measured.endpoint: polyreactivity (PSR sort gate)

sequence_text=QVQLVESGGGLVQAGGSLRLSCAASGSTFGYYAMGWYRQEPGKERELVAAISRGSSTYYADSVKGRFTISRDNAKNTVYLQMNSLKPEDTAVYYCAAKRYAYGSLDYWGQGTQVTVSS readout_value="high polyreactivity"
sequence_text=QVQLVESGGGLVQAGGSLRLSCAASGSTFLPNDMGWYRQAPGKERELVAAISWSDGSTYYADSVKGRFTISRDNAKNTVYLQMNSLKPEDTAVYYCNTVGFDYYYYEYDYWGQGTQVTVSS readout_value="low polyreactivity"
sequence_text=QVQLVESGGGLVPAGGSLRLSCAASGRIFWSNAMGWYRQAPGKERELVAAITWRGGSTYADSVKGRFTISRDNAKNTVYLQMNSLKPEDTAVFYCAASPSGWRYDYWGQGTQVTVSS readout_value="high polyreactivity"
sequence_text=QVQLVESGGGLVQAGGSLRLSCASSGSIFYYTEIGWYRQAPGKERELVAAISWGDGITYYADSVKGRFTISRDYAKNTVSLLMNSLKPEDTAFYYCAVDYYYLPFDYWGQGTQGTVSS readout_value="high polyreactivity"
sequence_text=QVQLVESGGGLVQAGGSLRLSCAASGSTFVPYAMGWYRPAPGKERELVAGITFSGGSTYYADSVKGRFTISRDNAKNTVYLQMNSLKPEDTAVYYCAAGGWRGHYYWGQGTQVTVSS readout_value="high polyreactivity"

Problem: Find the recorded polyreactivity (PSR sort gate) belonging to `QVQLVESGGGLVQAGGSLRLSCAASGSIFYENAMGWYRQAPGKERELVAAIRDSGGSTYYADSVKGRFTISRDNAKNTVYLQMNSLKPEDTAVYYCNAVPVYYDYDYWGQGTQVTVSS` and report it.
Result: low polyreactivity

Problem: Another sequence: `QVQLVESGGGLVHAGGSHRLSCAASGIIVYVNAMGLYRQAPGKERELVSAITFGGDSTYYADSVKGRFTISRDTAKNTVYLQMNSLKPEDTAVYFCATDGDPAYPELEYWGQGTQVTVSS`
Result: low polyreactivity

---

Assay: yeast display, Sf9 membrane polyspecificity reagent, FACS + sequencing; frameworks hold sequencing errors
measured.endpoint: polyreactivity (PSR sort gate)

Example sequences with recorded polyreactivity (PSR sort gate):
sequence_text=QVQLVESGGGLVQAGGSLRLSCAASGITFQKNAMGWYRKAPGKERELVAGITWRGSTYYADSVKGRFTISRDNAKNTVYLQMNSLKPEDTAVYYCAADPFYWYRSFRGEYWGKGTQVTVSS readout_value="low polyreactivity"
sequence_text=QVQLVESGGGLVQAGGSLRLSCAASGSTFLRYDMGWYRQAPGKDRELVAAINWSGGGTSYADSVKGRFTISRDNAKNTVYLQMNSLKPEDTEVYYCAAYFRYSYYWSEYWGQGTQVTVSS readout_value="high polyreactivity"
sequence_text=QVQLVESGGGLVQAGGSLRLSCAASGIIFYGYAMGRYRQAPGKERELVAAITSSGRTYYADSVKGRFTISRDNAKNTVYLQMNSLKPEDTAVYFCNVLLQRVYGTAPSFDYWGQGTQVTVSS readout_value="high polyreactivity"
sequence_text=QVQLVESGGGLVQAGGRLRLSCAASGRTFAFYTMGWYRQAPGKEREFVAAISWSGGSTHYADSVKGRFTISRDNAKNTVYLQMNSLKPEDTAVYYCDAGPFYRFTDGRYKTLDYWGQGTQVTVSS readout_value="high polyreactivity"

Pending sequence:
Problem: Find the recorded polyreactivity (PSR sort gate) belonging to `QVQLVESGGGLVQAGGSLRLSCSASGFTFSWYAMGWYRQAPGKDRELVAAINADGGTTYYADSVKGRFTISRDNAKNTVYLQMNSLKPEDTAVYYCADELSVDKYDYWGQGTQVTVSS` and report it.
Result: low polyreactivity
